// reported T/C for each item listed
System: CD2F1 mice, L1210 leukemia ip, survival T/C
experiment.notes: NCI In Vivo Anticancer Drug Screen. Data for tumor model L1210 Leukemia (intraperitoneal) in CD2F1 (CDF1) mice
test.parameters: endpoint: mean survival time; dose: 400.0 mg/kg/injection; schedule: Q04DX003 (ip); vehicle: saline with Tween-80; higher = longer survival
Toxic doses and inconclusive results are not listed.

>  <compound>
O=[N+]([O-])c1cc(Cl)c(Cl)cc1Cl

>  <parameter.measured>
T/C

>  <observed.result>
118 % of control

$$$$
>  <compound>
O=C(O)CCNc1ccc2c(c1)B(O)OC2

>  <parameter.measured>
T/C

>  <observed.result>
98 % of control

$$$$
>  <compound>
O=S(=O)(Nc1ccc(NS(=O)(=O)c2ccccc2)c2ccccc12)c1ccccc1

>  <parameter.measured>
T/C

>  <observed.result>
96 % of control

$$$$
>  <compound>
O=S(=O)(O)c1cc(N=Nc2cccc3ccccc23)c(O)c2ncccc12

>  <parameter.measured>
T/C

>  <observed.result>
106 % of control

$$$$
>  <compound>
COC(=O)C1(C)CCCC2(C)C1CCC1(O)C(O)C(C(C)C)=CCC21 (configuration not stated)

>  <parameter.measured>
T/C

>  <observed.result>
92 % of control

$$$$

Field: next compound
IN: Which T/C is reported for this compound? `Nc1ccccc1Sc1ccncc1[N+](=O)[O-]`
OUT: 97 % of control
